log10 of IC50 values for the compounds below.
- Target Desc: DP receptor (Homo sapiens, UniProt Q13258)
- Construct: endogenous in cells; host or cells: washed platelets from peripheral blood of a healthy volunteer
- Sequence (Q13258 1-359): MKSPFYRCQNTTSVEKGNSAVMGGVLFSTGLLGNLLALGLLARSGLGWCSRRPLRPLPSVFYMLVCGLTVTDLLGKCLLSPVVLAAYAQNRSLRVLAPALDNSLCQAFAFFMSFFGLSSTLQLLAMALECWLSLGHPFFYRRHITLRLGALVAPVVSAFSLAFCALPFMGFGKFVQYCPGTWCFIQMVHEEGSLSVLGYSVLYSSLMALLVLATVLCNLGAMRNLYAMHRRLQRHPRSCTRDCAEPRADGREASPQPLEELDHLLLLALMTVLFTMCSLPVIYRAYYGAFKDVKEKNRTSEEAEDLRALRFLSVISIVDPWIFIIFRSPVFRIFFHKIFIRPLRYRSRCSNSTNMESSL
- Test Description: cAMP assay with washed platelet (DP inhibitory activity in vitro)
- Type: cell-based
- Condition Details: read-out: IC50 (50% DP-inhibitory concentration in the cAMP assay); washed human platelets, 100 nM PGD2, cAMP by HTRF
// units: nM (pre-log); metric: IC50; scale: log10

compound="COc1cccc(OC2CCN(S(=O)(=O)c3ccc(OC(C)C)cc3)CC2)c1CCC(=O)O [Compound I-12]" experimental_endpoint="log10 of IC50" reported_value=3.62
compound="CC(C)Oc1ccc(S(=O)(=O)N2CCN(c3cc(Cl)cc(OCC(=O)O)c3)CC2)cc1 [II-26]" experimental_endpoint="log10 of IC50" reported_value=2.63
compound="CC(C)Oc1ccc(S(=O)(=O)N2CC=C(c3ccc(Cl)c(OCC(=O)O)c3)CC2)cc1 [Compound I-30]" experimental_endpoint="log10 of IC50" reported_value=2.71
compound="CC(C)Oc1ccc(S(=O)(=O)N2CCN(c3ccc(-c4nccs4)c(OCC(=O)O)c3)CC2)cc1 [II-92]" experimental_endpoint="log10 of IC50" reported_value=2.56
compound="CC(C)Oc1ccc(S(=O)(=O)N2CCN(c3ccc(C#N)c(OCC(=O)O)c3)CC2)cc1 [II-80]" experimental_endpoint="log10 of IC50" reported_value=2.30
compound="CC(C)Oc1ccc(S(=O)(=O)N2CCN(c3ccc(Cl)c(CC(=O)O)c3)CC2)cc1 [II-20]" experimental_endpoint="log10 of IC50" reported_value=3.63

Q: Given CC(C)Oc1ccc(S(=O)(=O)N2CCN(c3ccc(-c4ncco4)c(OCC(=O)O)c3)CC2)cn1 [II-94] , state its recorded log10 of IC50.
A: 3.30

Q: Quick one: CC(C)Oc1ccc(S(=O)(=O)N2CCN(c3ccc([N+](=O)[O-])c(NCC(=O)O)c3)CC2)cc1 [II-135]
A: 2.11

* * *

log10(IC50) values for the molecules below.
- Target Desc: DP receptor (Homo sapiens)
- Construct: endogenous in cells; host or cells: washed platelets from peripheral blood of a healthy volunteer
- Sequence (Q13258 1-359): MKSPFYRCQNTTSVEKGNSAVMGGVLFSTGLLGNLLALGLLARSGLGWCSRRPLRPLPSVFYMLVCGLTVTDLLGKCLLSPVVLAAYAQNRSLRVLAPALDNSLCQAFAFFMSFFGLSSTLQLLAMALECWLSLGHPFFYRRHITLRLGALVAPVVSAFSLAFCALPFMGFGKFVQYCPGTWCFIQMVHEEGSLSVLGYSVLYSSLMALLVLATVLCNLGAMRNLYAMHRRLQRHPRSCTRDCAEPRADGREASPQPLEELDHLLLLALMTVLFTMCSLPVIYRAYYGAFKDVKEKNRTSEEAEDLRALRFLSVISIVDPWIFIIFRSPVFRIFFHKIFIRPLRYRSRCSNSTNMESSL
- Test Description: cAMP assay with washed platelet (DP inhibitory activity in vitro)
- Assay type: cell-based
- Condition Details: read-out: IC50 (50% DP-inhibitory concentration in the cAMP assay); washed human platelets, 100 nM PGD2, cAMP by HTRF
// units: µM (pre-log); metric: IC50; scale: log10

Example results:
molecule="Cc1nnc(-c2ccc(N3CCN(S(=O)(=O)c4ccc(OC(C)C)cc4)CC3)cc2OCC(=O)O)s1 [II-75]" experimental_endpoint=log10(IC50) reported_value=-0.24
molecule="CC(C)Oc1ccc(S(=O)(=O)N2CCN(c3cc(F)c(F)c(OCC(=O)O)c3)CC2)cc1 [II-16]" experimental_endpoint=log10(IC50) reported_value=-0.60
molecule="CC(C)Oc1ccc(S(=O)(=O)N2CCC(Oc3ccc(F)cc3CCC(=O)O)CC2)cc1 [Compound I-18]" experimental_endpoint=log10(IC50) reported_value=0.20
molecule="Cc1cc(C(=O)Nc2ccc(N3CCN(S(=O)(=O)c4ccc(OC(C)C)cc4)CC3)cc2OCC(=O)O)no1 [II-60]" experimental_endpoint=log10(IC50) reported_value=-0.06
molecule="CC(C)Oc1ccc(S(=O)(=O)N2CCN(c3ccc(Br)c(OCC(=O)O)n3)CC2)cc1 [II-90]" experimental_endpoint=log10(IC50) reported_value=-0.23

Q: Given CC(C)Oc1ccc(S(=O)(=O)N2CCN(c3ccc(C(=O)NCc4ccco4)c(OCC(=O)O)c3)CC2)cc1 [II-106] , state its recorded log10(IC50).
A: 0.20

Q: Quick one: CC(C)Oc1ccc(S(=O)(=O)N2CCN(c3ccc([N+](=O)[O-])c(OCC(=O)O)c3)CC2)cc1 [II-13]
A: -0.55

Q: Quick one: CC(C)Oc1ccc(S(=O)(=O)N2CCN(c3ccc(C(=O)Nc4nccs4)c(OCC(=O)O)c3)CC2)cc1 [II-108]
A: -0.89

Q: Quick one: CNC(=O)c1ccc(N2CCN(S(=O)(=O)c3ccc(OC(C)C)cc3)CC2)cc1OCC(=O)O [II-82]
A: 0.04
